Data origin: ChEMBL document CHEMBL5291721

- SYSTEM_UNDER_TEST: Growth hormone secretagogue receptor type 1 (Homo sapiens, UniProt Q92847); further: assay procedure not described here
- Sequence (Q92847 whole entry): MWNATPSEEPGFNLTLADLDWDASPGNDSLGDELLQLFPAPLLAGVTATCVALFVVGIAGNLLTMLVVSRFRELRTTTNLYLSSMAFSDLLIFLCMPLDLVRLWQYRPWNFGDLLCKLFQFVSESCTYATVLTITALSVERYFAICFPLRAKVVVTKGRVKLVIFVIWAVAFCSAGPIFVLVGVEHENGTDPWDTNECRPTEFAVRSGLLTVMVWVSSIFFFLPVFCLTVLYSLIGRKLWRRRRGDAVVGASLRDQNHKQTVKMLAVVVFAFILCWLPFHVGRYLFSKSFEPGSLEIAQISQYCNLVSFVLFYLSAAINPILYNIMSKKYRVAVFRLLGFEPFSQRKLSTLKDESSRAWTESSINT
MEASUREMENT_KIND: AC50

Use the examples below as a reference point.
CCN1CC(CCN2CCOCC2)C(c2ccccc2)(c2ccccc2)C1=O (centres undefined) | > 30 µM
CCC(=O)O[C@](Cc1ccccc1)(c1ccccc1)[C@H](C)CN(C)C | > 30 µM
C=CC[N+]1([C@H]2C[C@H]3[C@@H]4CC[C@H]5C[C@H](O)[C@@H](N6CCOCC6)C[C@]5(C)[C@H]4CC[C@]3(C)[C@H]2OC(C)=O)CCCC1 | > 30 µM

Next:
[in] Provide AC50, tested on Growth hormone secretagogue receptor type 1 (Homo sapiens, UniProt Q92847), for O=C1c2ccccc2C(=O)C1c1ccccc1 . Further: assay procedure not described here.
[out] > 10 µM
